- Test system: 935938-334-R-J1-PDC spheroids with HUVEC/MSC, viability
- procedure.details: Anticancer human tumor 935938-334-R-J1-PDC patient-derived small intestine adenocarcinoma cell line growth inhibition [PI3K]
- conditions.used: second compound 0.316 µM; first compound 1 µM; hits give low values
- Source text: Combinatorial screen of targeted agents with the PI3K inhibitors inavolisib, alpelisib, duvelisib, and copanlisib in multi-cell type tumor spheroids A high-throughput screen of multi-cell type tumor spheroids was designed to identify active combinations of targeted small molecules and PI3K pathway inhibitors. […] Compounds. […] If the clinical Cmax for an agent had not been determined, the highest concentration tested was 10 microM. […]
measure: viability, T/C

molecule | result
C[C@@H](NC(=O)c1ncnc(N)c1Cl)c1ncc(C(=O)Nc2cc(C(F)(F)F)c(Cl)cn2)s1 + COc1c(OCCCN2CCOCC2)ccc2c3n(c(=NC(=O)c4cnc(N)nc4)nc12)CCN3 | 41.8%
CCCS(=O)(=O)Nc1ccc(F)c(C(=O)c2c[nH]c3ncc(-c4ccc(Cl)cc4)cc23)c1F + CC(Nc1ccc2c(c1)OCCn1cc(N3C(=O)OCC3C(F)F)nc1-2)C(N)=O | 102%
CCN1CCN(Cc2ccc(Nc3ncc(F)c(-c4cc(F)c5nc(C)n(C(C)C)c5c4)n3)nc2)CC1 + CC(Nc1ccc2c(c1)OCCn1cc(N3C(=O)OCC3C(F)F)nc1-2)C(N)=O | 14.7%
CC1(C)CCC(CN2CCN(c3ccc(C(=O)NS(=O)(=O)c4ccc(NCC5CCOCC5)c([N+](=O)[O-])c4)c(Oc4cnc5[nH]ccc5c4)c3)CC2)=C(c2ccc(Cl)cc2)C1 + CC(Nc1ccc2c(c1)OCCn1cc(N3C(=O)OCC3C(F)F)nc1-2)C(N)=O | 68.8%
Cn1nccc1Nc1nccc(-c2ccn(C(CO)c3ccc(Cl)c(F)c3)c(=O)c2)n1 (stereo not given) + CC(Nc1ncnc2nc[nH]c12)c1cc2cccc(Cl)c2c(=O)n1-c1ccccc1 | 56.2%

###

In this section, each of the compounds is paired with its reported viability, T/C.
- Tested on: 935938-334-R-J1-PDC spheroids with HUVEC/MSC, viability
- procedure.details: Anticancer human tumor 935938-334-R-J1-PDC cell line growth inhibition [PI3K];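 further: compound exposure lasted seven days before viability was read; percent of vehicle DMSO treated spheroid viability so 100% = untreated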
- conditions.used: second compound 0.01 µM; first compound 0.01 µM; hits give low values
measure: viability, T/C (%)

compound | measure | display.unit | result
CC(=O)c1c(C)c2cnc(Nc3ccc(N4CCNCC4)cn3)nc2n(C2CCCC2)c1=O + CC(Nc1ccc2c(c1)OCCn1cc(N3C(=O)OCC3C(F)F)nc1-2)C(N)=O | viability, T/C | % | 86.7
CC(=O)c1c(C)c2cnc(Nc3ccc(N4CCNCC4)cn3)nc2n(C2CCCC2)c1=O + COc1c(OCCCN2CCOCC2)ccc2c3n(c(=NC(=O)c4cnc(N)nc4)nc12)CCN3 | viability, T/C | % | 90.1
CC(C)n1nc(-c2ccc3oc(N)nc3c2)c2c(N)ncnc21 + COc1c(OCCCN2CCOCC2)ccc2c3n(c(=NC(=O)c4cnc(N)nc4)nc12)CCN3 | viability, T/C | % | 89.5
CC(C)n1nc(-c2ccc3oc(N)nc3c2)c2c(N)ncnc21 + CC(Nc1ccc2c(c1)OCCn1cc(N3C(=O)OCC3C(F)F)nc1-2)C(N)=O | viability, T/C | % | 62.2
CCN1CCN(Cc2ccc(Nc3ncc(F)c(-c4cc(F)c5nc(C)n(C(C)C)c5c4)n3)nc2)CC1 + COc1c(OCCCN2CCOCC2)ccc2c3n(c(=NC(=O)c4cnc(N)nc4)nc12)CCN3 | viability, T/C | % | 74
CCN1CCN(Cc2ccc(Nc3ncc(F)c(-c4cc(F)c5nc(C)n(C(C)C)c5c4)n3)nc2)CC1 + CC(Nc1ccc2c(c1)OCCn1cc(N3C(=O)OCC3C(F)F)nc1-2)C(N)=O | viability, T/C | % | 58
Cn1ncnc1[C@H]1c2n[nH]c(=O)c3cc(F)cc(c23)N[C@@H]1c1ccc(F)cc1 + CC(Nc1ccc2c(c1)OCCn1cc(N3C(=O)OCC3C(F)F)nc1-2)C(N)=O | viability, T/C | % | 87.5
Cn1ncnc1[C@H]1c2n[nH]c(=O)c3cc(F)cc(c23)N[C@@H]1c1ccc(F)cc1 + COc1c(OCCCN2CCOCC2)ccc2c3n(c(=NC(=O)c4cnc(N)nc4)nc12)CCN3 | viability, T/C | % | 82.2
